Test: NCI Yeast Anticancer Drug Screen. Data for the cln2 rad14 strain (AID 165);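 also: 0% = growth equal to vehicle treated cultures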
Settings: S. cerevisiae cln2 rad14 strain, at 50.0 µM, stronger effect = higher value
Compounds without any hit were thinned out: in the full panel of roughly 79,000, 15% have a hit.
MEASURED PROPERTY: growth inhibition (%)

MOLECULE	TEST VALUE
Cc1cccc(O)c1	-16.4
CC(=O)[C@H]1CC[C@@H]2[C@]1(C)CC1OC13[C@@]21C=C[C@@]2(CC(=O)CC[C@]32C)C2C(=O)OC(=O)C21 (stereo partly drawn)	18.5
CN(C)c1ccc(NN=C2SC(=Nc3ccccc3)C(=Nc3ccccc3)S2)cc1	18.1
COc1ccc(C(=O)c2ccccc2)c(OC(=O)Nc2ccc(Cl)cc2)c1	3.8
Nc1cccc2sccc12	-4.1
C[N+](C)(C)C12CCCCCC1SC2 (stereo not drawn)	-26.6
N#C/C(=C\Nc1ccccn1)C(=O)c1ccco1	-0.5
CC1(C)OCC(C2OC(C)(C)OC2C(CO)Nc2ccc([N+](=O)[O-])cc2[N+](=O)[O-])O1 (stereo not drawn)	41.4
CC1CCC(NC(=O)NCCCl)c2ccccc21 (stereo not drawn)	-23.8
COc1ccc(-c2nnc(-c3ccc(OC)cc3)o2)cc1	0.2
O=C(OCCCCCCCCOC(=O)c1ccc([N+](=O)[O-])cc1)c1ccc([N+](=O)[O-])cc1	4.1
CC1CC(=O)CC(C)C1 (stereo not drawn)	-27.1
NC(Cc1c[nH]c2ccc(Br)cc12)C(=O)O (stereo not drawn)	5.4
COc1ccc(/C=C2\Cc3ccccc3C2=O)cc1OC	8.25
CCN(CC)C(=O)C1=C(C)NC(C)=C(C(=O)N(CC)CC)C1	-22.1
Cc1cnc(NCCCCCCNc2ncc(C)c(-c3ccccc3O)n2)nc1-c1ccccc1O	4
COc1cc(C(=O)C/C(CCC(=O)Nc2ccc(Cl)cc2Cl)=N/Nc2nnc(C)n2N)ccc1O	13.4
CCOC(=O)C(C)c1nc2cc(F)c(F)cc2[nH]c1=O (stereo not drawn)	2.6
COC(=O)c1ccc(C(=O)OC)c(NC(=O)CC(=O)c2ccc([N+](=O)[O-])cc2)c1	9.55
O=C1C(OC(=O)c2ccccc2)=C(c2ccc(O)cc2)C(=O)C(OC(=O)c2ccccc2)=C1c1ccc(O)cc1	9.75
[N-]=[N+]=NC1(Cc2ccccc2)C(=O)c2cccc3c2N(CCC3)C1=O (stereo not drawn)	16.2
COCCNc1cncc(C(N)=O)c1	-19.2
c1ccc(SC(Sc2ccccc2)=C2CCC2)cc1	14.8
